Documented pIC50 across a set of molecules
- measurement_target: Cholesteryl ester transfer protein (Homo sapiens, UniProt P11597)
- Sequence (P11597 whole entry): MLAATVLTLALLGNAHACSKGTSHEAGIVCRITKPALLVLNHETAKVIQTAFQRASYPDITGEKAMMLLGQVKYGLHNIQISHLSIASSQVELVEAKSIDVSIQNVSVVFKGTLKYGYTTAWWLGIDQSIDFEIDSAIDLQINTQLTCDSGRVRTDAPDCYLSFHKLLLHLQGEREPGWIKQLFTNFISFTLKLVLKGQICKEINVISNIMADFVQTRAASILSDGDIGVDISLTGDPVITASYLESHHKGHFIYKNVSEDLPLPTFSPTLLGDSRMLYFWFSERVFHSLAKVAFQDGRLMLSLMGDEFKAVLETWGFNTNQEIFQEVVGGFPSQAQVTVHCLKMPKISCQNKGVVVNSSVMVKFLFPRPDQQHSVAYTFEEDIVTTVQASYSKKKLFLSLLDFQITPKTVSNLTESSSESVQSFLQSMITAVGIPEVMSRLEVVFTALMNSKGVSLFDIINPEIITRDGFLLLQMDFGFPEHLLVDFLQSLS
pIC50: −log10 of the molar value.
quantity_measured: pIC50

structure_notation: COC(=O)N(Cc1cc(C(F)(F)F)cc(C(F)(F)F)c1)Cc1cc(F)ccc1-c1cc(C(C)C)ccc1OC
measured: 5.76
//
structure_notation: COC(=O)N(Cc1cc(C(F)(F)F)cc(C(F)(F)F)c1)Cc1cc(C(F)(F)F)ccc1-c1cc(C)ccc1OC
measured: 6.33
//
structure_notation: CCc1ccc(OC)c(-c2ccc(C(F)(F)F)cc2CN(Cc2cc(C(F)(F)F)cc(C(F)(F)F)c2)C(=O)OC)c1
measured: 6.68
//
structure_notation: COC(=O)N(Cc1cc(C(F)(F)F)cc(C(F)(F)F)c1)Cc1cc(Cl)ccc1-c1cc(C(C)C)ccc1OC
measured: 5.84
//
structure_notation: COC(=O)N(Cc1cc(C(F)(F)F)cc(C(F)(F)F)c1)Cc1cc(C(F)(F)F)ccc1-c1ccccc1OC
measured: 5.80
//
structure_notation: COC(=O)N(Cc1cc(C(F)(F)F)cc(C(F)(F)F)c1)Cc1cc(I)ccc1-c1cc(C(C)C)ccc1OC
measured: 6.44
//
structure_notation: COC(=O)N(Cc1cc(C(F)(F)F)cc(C(F)(F)F)c1)Cc1ccccc1-c1cc(C(C)C)ccc1OC
measured: 5.42
